- Tested on: mice
- PROCEDURE_SUMMARY: Narcosis potentiating activity on mice (sodium hexobarbital narcosis)
- Assay type: in vivo
- EXPERIMENTAL_PARAMETERS: 50 mg/kg p.o., relative to Grandaxin (1.0)
- Protocol: When studying the narcosis potentiating effect, the benzodiazepine compounds were administered to mice in oral dosages of 12.5, 25, 50 or 100 mg/kg, and 30 minutes later 50 mg/kg of sodium hexobarbital were injected intravenously into the animals. The percentage prolongation of the narcosis period, compared to the value observed in the control group treated with sodium hexobarbital alone, was calculated. In these tests Grandaxin was applied again as reference substance.
Decide using Narcosis potentiating activity on mice, Relative activity alone. Strictly below 2: criterion met. Equal to or above 2: criterion not met.

A record lists CCC1C(C)=NN=C(c2ccc(O)c(OC)c2)c2cc(OC)c(OC)cc21 (centres unmarked) [Example 24] . Is its Narcosis potentiating activity on mice, Relative activity below 2?
criterion met

A record lists CCC1=NN=C(c2ccc(OC)c(OC)c2)c2cc(OC)c(OC)cc2C1CC (centres unmarked) [Example 11] . Is its Narcosis potentiating activity on mice, Relative activity below 2?
criterion met

A record lists CCC1C(C)=NN=C(c2cccc(F)c2)c2cc(OC)c(OC)cc21 (centres unmarked) [Example 42] . Is its Narcosis potentiating activity on mice, Relative activity below 2?
criterion not met

A record lists CCC(C)Oc1cc2c(cc1OC)C(c1ccc(OC)c(OC)c1)=NN=C(C)C2CC (centres unmarked) [Example 35] . Is its Narcosis potentiating activity on mice, Relative activity below 2?
criterion met

A record lists CCC1C(C)=NN=C(c2ccc(OC)c(OC)c2)c2cc(OC)c(OC)cc21 (centres unmarked) [Grandaxin, reference compound] . Is its Narcosis potentiating activity on mice, Relative activity below 2?
criterion met

A record lists CCC1C(C)=NN=C(c2ccc(OC)c(OC)c2)c2cc(OC)c(OC(C)C)cc21 (centres unmarked) [Example 33] . Is its Narcosis potentiating activity on mice, Relative activity below 2?
criterion not met

A record lists CCC1C(C)=NN=C(c2ccccc2F)c2cc(OC)c(OC)cc21 (centres unmarked) [Example 14] . Is its Narcosis potentiating activity on mice, Relative activity below 2?
criterion not met

A record lists COc1cc2c(cc1OC)C(c1cccc(F)c1)=NN=C(C)C2 [Example 41] . Is its Narcosis potentiating activity on mice, Relative activity below 2?
criterion met

A record lists CCCC1C(C)=NN=C(c2ccc(OC)c(OC)c2)c2cc(OC)c(OC)cc21.O (centres unmarked) [Example 10] . Is its Narcosis potentiating activity on mice, Relative activity below 2?
criterion met

A record lists CCC1C(C)=NN=C(c2ccc(OC)cc2)c2cc(OC)c(OC)cc21 (centres unmarked) [Example 4] . Is its Narcosis potentiating activity on mice, Relative activity below 2?
criterion not met

A record lists CCOc1cc2c(cc1OC)C(c1ccc(OC)c(OC)c1)=NN=C(C)C2CC (centres unmarked) [Example 36] . Is its Narcosis potentiating activity on mice, Relative activity below 2?
criterion not met

A record lists CCC1C(C)=NN=C(c2ccccc2)c2cc(OC)c(OC)cc21 (centres unmarked) [Example 22] . Is its Narcosis potentiating activity on mice, Relative activity below 2?
criterion not met

A record lists COc1cc2c(cc1OC)C(C)C(C)=NN=C2c1cccc(Cl)c1 (centres unmarked) [Example 40] . Is its Narcosis potentiating activity on mice, Relative activity below 2?
criterion met

A record lists CCC1C(C)=NN=C(c2ccccc2Cl)c2cc(OC)c(OC)cc21 (centres unmarked) [Example 18] . Is its Narcosis potentiating activity on mice, Relative activity below 2?
criterion not met

Data origin, for the record: patent US4322346A
